This collection of values is drawn from paper PMC9482650.

tested_target: FRMPD4, Q14CM0
Sequence (Q14CM0 67-160): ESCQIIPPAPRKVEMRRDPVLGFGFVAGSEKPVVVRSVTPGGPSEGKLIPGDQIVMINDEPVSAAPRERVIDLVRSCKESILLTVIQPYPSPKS
experimental_protocol: holdup assay
Parameters: key: below the threshold = too weak to quantify, mostly under pKd 3.1 to 4
study_conditions: plain residues with an end cap or a label only (N-terminal biotin on a linker: ado-ado)
measure: pKd

binder | result
EDLEDEWEVI [TECPR2, O15040] | below the threshold
TISFTQTSQF [SLC1A1, P43005] | below the threshold
TRKRSGEAAV [PFKM, P08237] | 3.58
SLNANEVEWF [RNF130, Q86XS8] | 3.5
VLYPREGTEV [FOXI1, Q12951] | 3.51
TNSRHGETTV [FZD2, Q14332] | below the threshold

Prompt: // returns reported pKd for input AQRARSPSDV [GPR12, P47775]
Response: below the threshold

Prompt: Cool, now NTANRRTTPV [CACNG2, Q9Y698]
Response: below the threshold

Prompt: Ok, now QSGLYESEEL [MYOT, Q9UBF9]
Response: below the threshold

Prompt: Also, PYSESDDDWC [CACNA1A, O00555] please.
Response: 4.01

Prompt: Try the binder AAVENKVTDL [PLXNB1, O43157]
Response: 3.68
